biological target: MICA*004 on HCC1534 cells (human, UniProt Q29983 24-383); assay: cell-based or functional assay; also: test concentration or dose not given here
Observable: % Inhibition (%)
One number for each entry, in %.

In the examples that follow, each entry is paired with its recorded % Inhibition.
# Binder, Unit Symbol, % Inhibition
records = [
    ("6E1 (m IgG2a, CHO) (antibody, V domains shown) VH: QGQMQQSGAELVKPGASVKLSCKTSGFTFSDNYISWLKQKPGQSLEWIAWIYAGTGGSSYNQKFRDKAQLTVDTSSRTAYMQLSSLTTEDSAIYYCARHDYYGTSGAWFAYWGRGTLVTVSA VL: DVLMTQTPLSLPVSLGDQASISCRSSQHIVHSNENTYLEWYLQKPGQSPKLLIYKVSNRFSGVPDRFSGSGSGTDFTLKISRVEAEDLGVYYCFQGSHVPWTFGGGTKVEIK", "%", 40),
    ("13A9v2 (antibody, IgG1, V domains shown, humanized variant of 13A9) VH: EVQLVQSGAEVKKPGASVKVSCKASGYAFTNYLIEWVRQAPGQGLEWIGAINPGSGATNYNEKFKDRATLTADKSTNTAYLELSSLRSEDTAVYFCARFLGNYFDNWGQGTLVTVSS VL: DIQMTQSPSSLSASVGDRVTITCRASGNIHSYLAWYQQKPGKAPKLLIYYAETLADGVPSRFSGSGSGTDFTLTISSLQPEDFATYYCQQFWTTPYTFGQGTKVEIK", "%", 10),
]

Would you mind giving % Inhibition for every binder in the list below?
1. 15F11v3 (antibody, IgG1, V domains shown, humanized variant of 15F11) VH: EVQLVQSGAEVKKPGASVKVSCKASGYAFTSNNIYWVRQAPGQGLEWIGYIDPYIGRIIYNQQFKDRVTITADTSTSTAYLELSSLRSEDTAVYYCSRSGERSNFDYWGQGTLVTVSS VL: EIVLTQSPATLSLSPGERATLSCSASSSISSNYLHWYQQKPGQSPRLLIYRTSNLASGVPARFSGSGSGTDYTLTISSLEPEDFAVYYCQQGGSLPLTFGQGTKVEIK
2. 1D5v28 (antibody, IgG1, V domains shown, humanized variant of 1D5) VH: EIQLVQSGAEVKKPGASVKVSCKASGYAFTSQNIYWVRQAPGQGLEWIGYIEPYNVVPLYNPKFKGRATLTVDKSTSTAYLELSSLRSEDTAVYYCARSGSSNFDYWGQGTLVTVSS VL: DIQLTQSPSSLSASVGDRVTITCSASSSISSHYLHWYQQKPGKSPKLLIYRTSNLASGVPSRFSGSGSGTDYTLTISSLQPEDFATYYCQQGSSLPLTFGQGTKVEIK
3. 1D5v26 (antibody, IgG1, V domains shown, humanized variant of 1D5) VH: EVQLVQSGAEVKKPGASVKVSCKASGYAFTSQNIYWVRQAPGQGLEWIGYIEPYNVVPMYNPKFKGRVTITRDKSTSTAYLELSSLRSEDTAVYYCARSGSSNFDYWGQGTLVTVSS VL: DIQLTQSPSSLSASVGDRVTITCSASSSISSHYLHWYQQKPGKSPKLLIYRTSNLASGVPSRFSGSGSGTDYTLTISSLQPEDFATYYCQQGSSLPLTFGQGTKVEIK

Output:
39
3
37
